biological target: MERTK (UniProt Q12866); assay: phosphorylation enrichment, bacterial display (enrichment ratio); higher = better substrate or ligand; peptides without Tyr show the background;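 note: 11-residue human phosphosite peptides and single-mutation variants displayed on the E. coli surface, counted by deep sequencing, each peptide's frequency after selection divided by its frequency in the unselected input library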;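 note: frequency after pTyr selection over input frequency; kinase dosed for 20-30% of maximal phosphorylation in three min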
Sequence (Q12866 whole entry, looked up): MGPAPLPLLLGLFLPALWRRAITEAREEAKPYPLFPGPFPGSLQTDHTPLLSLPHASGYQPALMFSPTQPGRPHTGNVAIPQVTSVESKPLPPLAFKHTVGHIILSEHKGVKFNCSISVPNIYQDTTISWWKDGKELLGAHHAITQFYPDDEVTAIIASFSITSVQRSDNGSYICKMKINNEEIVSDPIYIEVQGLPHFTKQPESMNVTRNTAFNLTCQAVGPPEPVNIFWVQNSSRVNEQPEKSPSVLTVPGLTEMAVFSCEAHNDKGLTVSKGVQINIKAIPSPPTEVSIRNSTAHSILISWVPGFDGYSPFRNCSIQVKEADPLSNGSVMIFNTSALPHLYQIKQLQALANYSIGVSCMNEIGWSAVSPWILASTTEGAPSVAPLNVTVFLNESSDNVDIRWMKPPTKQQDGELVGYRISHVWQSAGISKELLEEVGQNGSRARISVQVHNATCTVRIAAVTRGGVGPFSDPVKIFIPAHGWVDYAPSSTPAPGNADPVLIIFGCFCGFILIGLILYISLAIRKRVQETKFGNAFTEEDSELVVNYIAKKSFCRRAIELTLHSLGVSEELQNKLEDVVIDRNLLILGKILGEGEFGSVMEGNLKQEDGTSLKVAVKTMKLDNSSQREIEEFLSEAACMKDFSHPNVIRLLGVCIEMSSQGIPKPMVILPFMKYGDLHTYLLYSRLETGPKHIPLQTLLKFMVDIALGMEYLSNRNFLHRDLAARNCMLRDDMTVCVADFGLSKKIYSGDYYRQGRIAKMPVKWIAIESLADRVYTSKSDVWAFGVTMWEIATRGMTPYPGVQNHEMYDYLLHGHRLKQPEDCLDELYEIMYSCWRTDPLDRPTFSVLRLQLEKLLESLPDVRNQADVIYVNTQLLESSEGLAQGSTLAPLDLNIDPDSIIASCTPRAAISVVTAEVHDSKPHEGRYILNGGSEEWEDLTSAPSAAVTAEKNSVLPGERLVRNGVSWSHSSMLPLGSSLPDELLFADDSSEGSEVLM
phosphorylation enrichment values for the sequences below.
// no unit, no text: just the number

Example entries begin here.
CPFNLYAEQLS [HGD_Y40_YF] :: 0.769
LNCDRYSAGLL [PDE6A_Y275_V277A] :: 0.378
TISPYYRQSLF [CRYAA_Y48] :: 0.468

Now look at this entry.
// query Give the reported phosphorylation enrichment for GYKVRYATGSI [FGFR1_Y210_W213G] (system: MERTK (UniProt Q12866)).
// result 0.32

Recorded values, source the supplement of paper PMC10065799.
